Test system: PEO-1
assay.info: Cytotoxicity (ATPlite, 72 h) on PEO-1
Type: cell-based
test.parameters: Homo sapiens, PEO1, 72 h, PEO-1 (ovary), read-out: IC50 values (μM ± SEM)

compound	IC50
Nc1nc2c(c(=O)[nH]1)C(c1ccccc1)C1=C(N2)c2ccccc2C1=O (stereo not shown) [C21]	> 100 µM

----------
We begin with a simple list: items and their reported IC50.
experimental.target: NEK6 (Homo sapiens, UniProt Q9HC98)
Sequence (Q9HC98 whole entry): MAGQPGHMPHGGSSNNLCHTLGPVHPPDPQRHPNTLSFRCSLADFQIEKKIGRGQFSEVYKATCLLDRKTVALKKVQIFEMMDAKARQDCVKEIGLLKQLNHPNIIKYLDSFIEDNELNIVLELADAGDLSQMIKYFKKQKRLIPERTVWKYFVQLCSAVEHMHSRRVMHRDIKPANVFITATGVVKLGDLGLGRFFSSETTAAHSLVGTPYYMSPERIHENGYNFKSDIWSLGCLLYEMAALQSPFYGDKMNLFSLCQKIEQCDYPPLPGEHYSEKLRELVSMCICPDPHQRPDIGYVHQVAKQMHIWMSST
assay.info: Off-chip Mobility Shift Assay (MSA)
Format: biochemical
test.parameters: CDK7 peptide 1000 nM, 5 h
endpoint.label: IC50 (µM)

molecule	measurement
Nc1nc2c(c(=O)[nH]1)C(c1ccccc1)C1=C(N2)c2ccccc2C1=O (centres unmarked)	49.8
CC1=C(C#N)C(O)=NC(=O)/C1=C\c1ccc(-c2ccccc2)o1	13.8

----------
We begin with a simple list: items and their reported IC50.
experimental.target: NEK6 (Homo sapiens)
assay.info: LANCE-Ultra NEK6 kinase assay
Assay type: biochemical
test.parameters: LANCE-Ultra; 4 nM NEK6, 50 nM ULight-p70 S6K peptide, 100 μM ATP, 90 min; average of 4 experiments ± SEM; read-out: IC50 of NEK6 activity inhibition

molecule	result.units	IC50
CC1=C(C#N)C(O)=NC(=O)/C1=C\c1ccc(-c2ccccc2)o1	nM	3400
Nc1nc2c(c(=O)[nH]1)C(c1ccccc1)C1=C(N2)c2ccccc2C1=O (centres unmarked)	nM	2600

Reference source: patent US11820758B2
